# experiment description: Toxicity liver stage against HepG2, at 10uM
# Type: cell-based
# Design: test concentration 10 uM, cell line HepG2-A16-CD81EGFP
# particulars: human, HepG2-A16-CD81EGFP cells; read-out: INHIBITION
quantity name: cytotoxicity at 10 µM (%)

[
  {
    "compound": "Cc1nc(C(=O)N2CCc3c(nc(-c4ccncc4)[nH]c3=O)C2)cs1",
    "test value": -6.37
  },
  {
    "compound": "CC(C)(C)c1coc([C@@H]2COCCN2Cc2ccccn2)n1",
    "test value": -4.04
  },
  {
    "compound": "CN(C1CCCCC1)S(=O)(=O)NC1CCN(c2ncccn2)CC1",
    "test value": 6.99
  },
  {
    "compound": "Cc1ccc(CC(=O)N2CCCN(Cc3nccn3C)CC2)cn1",
    "test value": -22.3
  },
  {
    "compound": "Cc1ccccc1CC(=O)N1CCN(C2CCOC2=O)CC1 (configuration not stated)",
    "test value": -8.38
  },
  {
    "compound": "O=C(NS(=O)(=O)Cc1cc(-c2ccccc2)no1)C1CCOCC1",
    "test value": -2.85
  },
  {
    "compound": "Cn1cnnc1C1CCCN(C(=O)NCCc2ccccc2F)C1 (configuration not stated)",
    "test value": -1.88
  },
  {
    "compound": "CCOCCN1CCN(Cc2cccc(C(=O)N(C)C)c2)CC1CC (configuration not stated)",
    "test value": -5.83
  },
  {
    "compound": "Cn1cnc2c(N3CCCC3)nc(C3CCNCC3)cc21",
    "test value": -9.74
  },
  {
    "compound": "COCC[C@]1(O)CCN(Cc2ccccn2)C[C@H]1C",
    "test value": -7.72
  },
  {
    "compound": "O=C(Cn1cc(C2CC2)nn1)NC(c1cc(F)ccc1F)C1CC1 (configuration not stated)",
    "test value": -12.6
  },
  {
    "compound": "O=S(=O)(NC1CCC2(CC1)OCCO2)c1cccc(Br)c1",
    "test value": -5.65
  }
]
